Target: Cyclin-dependent kinase 2/cyclin A (Homo sapiens)
Experiment: biochemical
Description: Inhibition of human recombinant His6 tagged CDK2/Cyclin A expressed in Sf21 insect cells after 40 mins by scintillation counting analysis
MEASURED_ENDPOINT: Ki (nM)
Numbers only, in nM.

The following compounds have reported results that may help.
| SMILES_DATA | U | Ki |
| --- | --- | --- |
| CNc1nc(C)c(-c2ccnc(Nc3cccc(S(N)(=O)=O)c3)n2)s1 | nM | 4 |
| CNc1nc(C)c(-c2nc(Nc3ccc(N4CCN(C(C)=O)CC4)cc3)ncc2C#N)s1 | nM | 26 |

input: What does the data say about its Ki? Entry: `CNc1nc(C)c(-c2nc(Nc3ccc(N4CCNCC4)cc3)ncc2C#N)s1`
output: 39

----------
For each of the compounds below, state its pKi.
Target: Cyclin-dependent kinase 1/cyclin B1 (Homo sapiens, UniProt P06493)
Sequence (P06493 whole entry): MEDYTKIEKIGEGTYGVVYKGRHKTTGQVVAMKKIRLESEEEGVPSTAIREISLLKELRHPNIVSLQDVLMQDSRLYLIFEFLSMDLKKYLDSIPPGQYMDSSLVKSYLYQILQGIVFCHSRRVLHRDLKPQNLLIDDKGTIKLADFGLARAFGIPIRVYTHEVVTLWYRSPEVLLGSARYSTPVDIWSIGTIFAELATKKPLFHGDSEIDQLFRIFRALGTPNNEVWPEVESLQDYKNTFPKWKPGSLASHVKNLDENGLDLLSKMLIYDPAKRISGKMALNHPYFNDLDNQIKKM
Sequence (P14635 whole entry, further chain): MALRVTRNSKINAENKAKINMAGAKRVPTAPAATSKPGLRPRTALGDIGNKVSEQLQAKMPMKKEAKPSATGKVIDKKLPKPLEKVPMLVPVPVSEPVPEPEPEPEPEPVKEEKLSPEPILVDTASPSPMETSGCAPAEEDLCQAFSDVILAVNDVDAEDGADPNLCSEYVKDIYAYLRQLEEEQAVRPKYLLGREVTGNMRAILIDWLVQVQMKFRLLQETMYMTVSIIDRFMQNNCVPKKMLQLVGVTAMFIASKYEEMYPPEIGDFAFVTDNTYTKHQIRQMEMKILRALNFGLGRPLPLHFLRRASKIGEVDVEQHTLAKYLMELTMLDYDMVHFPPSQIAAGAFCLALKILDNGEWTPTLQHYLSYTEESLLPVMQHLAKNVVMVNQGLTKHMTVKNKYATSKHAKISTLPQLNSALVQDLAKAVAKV
Experiment: biochemical
Description: Inhibition of human recombinant His6 tagged CDK1/Cyclin B expressed in Sf21 insect cells after 40 mins by scintillation counting analysis
One number for each entry, as −log10 of the molar value.

Some compounds with recorded pKi:
| SMILES_DATA | MEASURED_ENDPOINT | VALUE_REPORTED |
| --- | --- | --- |
| CNc1nc(C(F)(F)F)c(-c2ccnc(Nc3cccc(S(N)(=O)=O)c3)n2)s1 | pKi | 8.82 |
| CNc1nc(C)c(-c2nc(Nc3ccc(N4CCNCC4)cc3)ncc2C#N)s1 | pKi | 7.10 |
| CNc1nc(C)c(-c2nc(Nc3cccc(N4CCOCC4)c3)ncc2F)s1 | pKi | 7.74 |
| CNc1nc(C)c(-c2nc(Nc3cccc([N+](=O)[O-])c3)ncc2O)s1 | pKi | 5.85 |
| CNc1nc(C)c(-c2ccnc(Nc3cccc(S(N)(=O)=O)c3)n2)s1 | pKi | 8.22 |

Now consider a different compound.
input: Quick one: pKi of `CNc1nc(CC(F)(F)F)c(-c2ccnc(Nc3cccc(S(N)(=O)=O)c3)n2)s1` ?
output: 6.81

----------
Target: Cyclin-dependent kinase 1/cyclin B1 (Homo sapiens, UniProt P06493)
Assay: biochemical
MEASURED_ENDPOINT: pKi
Answers are plain numbers, as −log10 of the molar value.

| SMILES_DATA | MEASUREMENT_TARGET | pKi |
| --- | --- | --- |
| CCc1cnc(Nc2cccc(S(N)(=O)=O)c2)nc1-c1sc(NC)nc1C | Cyclin-dependent kinase 1/cyclin B1 (Homo sapiens, UniProt P06493) | 6.10 |
| CNc1nc(C)c(-c2nc(Nc3cccc(N4CCNCC4)c3)ncc2C#N)s1 | Cyclin-dependent kinase 1/cyclin B1 (Homo sapiens, UniProt P06493) | 7.38 |
| CNc1nc(C)c(-c2ccnc(Nc3cccc(N4CCCNCC4)c3)n2)s1 | Cyclin-dependent kinase 1/cyclin B1 (Homo sapiens, UniProt P06493) | 6.71 |
| CNc1nc(C)c(-c2nc(Nc3ccc(N4CCN(C(C)=O)CC4)cc3)ncc2C#N)s1 | Cyclin-dependent kinase 1/cyclin B1 (Homo sapiens, UniProt P06493) | 7.35 |

For each of the items listed, what is its pKi?
1. CNc1nc(C)c(-c2nc(Nc3cccc(N4CCNCC4)c3)ncc2F)s1
2. CNc1nc(C)c(-c2nc(Nc3cccc(N4CCCCC4)c3)ncc2C#N)s1
3. CNc1nc(C(F)(F)F)c(-c2ccnc(Nc3ccc(S(N)(=O)=O)cc3)n2)s1
4. CNc1nc(C)c(-c2ccnc(Nc3cccc([N+](=O)[O-])c3)n2)s1
5. CNc1nc(C2CC2)c(-c2ccnc(Nc3cccc(N4CCCNCC4)c3)n2)s1
6. CNc1nc(C2CC2)c(-c2ccnc(Nc3ccc(S(N)(=O)=O)cc3)n2)s1
7. CNc1nc(C)c(-c2nc(Nc3cccc(N4CCN(C(C)=O)CC4)c3)ncc2F)s1

output:
1. 7.62
2. 7.46
3. 9.30
4. 8.30
5. 6.75
6. 8.70
7. 7.59

Batch of 5 compounds: report pKi for each.
1. CNc1nc(C2CC2)c(-c2ccnc(Nc3cccc(S(N)(=O)=O)c3)n2)s1
2. CNc1nc(C)c(-c2nc(Nc3cccc(N4CCN(C(C)=O)CC4)c3)ncc2C#N)s1
3. CNc1nc(CC(F)(F)F)c(-c2ccnc(Nc3ccc(O)cc3)n2)s1
4. CNc1ncc(-c2ccnc(Nc3cccc(S(N)(=O)=O)c3)n2)s1
5. CNc1nc(C)c(-c2nc(Nc3cccc(N4CCCNCC4)c3)ncc2F)s1

output:
1: 7.74; 2: 7.37; 3: 6.48; 4: 8.40; 5: 7.33

Dear colleague, could you send me pKi for each of the items below? Thanks.
1. CNc1nc(CC(F)(F)F)c(-c2ccnc(Nc3cccc(O)c3)n2)s1
2. CNc1nc(C)c(-c2nc(Nc3cccc(N4CCNCC4)c3)ncc2Cl)s1

output:
[6.25, 7.06]
